For each record, write down the corresponding pKd.
# target of assay: T1, human TGFβ2, mature receptor-binding domain (human, UniProt P09858 303-414 (pig entry), The mature TGFβ2 is a disulfide-linked homodimer of this 112-residue chain. The 4A11 epitope spans both monomers (p-1207).)
# T1 construct: Peprotech; also called TGFb2
# T1 sequence: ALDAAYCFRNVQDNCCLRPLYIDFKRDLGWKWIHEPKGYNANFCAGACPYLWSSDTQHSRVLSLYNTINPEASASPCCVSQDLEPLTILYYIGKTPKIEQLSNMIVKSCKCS
# test protocol: BIAcore T200
Remember, pKd is on a log scale: it is -log10 of the molar concentration.

Challenge: Item under review: h4A11.v7.7 (antibody, V domains shown) VH: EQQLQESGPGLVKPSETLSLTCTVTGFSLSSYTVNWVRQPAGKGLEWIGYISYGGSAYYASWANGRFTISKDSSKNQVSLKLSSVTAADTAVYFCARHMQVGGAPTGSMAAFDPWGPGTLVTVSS VL: EAVLTQSPGTLSLSPGERATLSCQSSQSVYNNNYLSWFQQKPGQPPRLLIYGASTLTSGIPDRFSGSGSGTDFTLTISRLEPEDFAVYYCAGGYSGSSDKYAFGGGTKVEIK . Reported pKd?
Response given: 11.20

Challenge: Here is the next binder: h4A11.v7.13 (antibody, human IgG1, kappa, N297G, V domains shown) VH: EQQLQESGPGLVKPSETLSLTCTVTGFSLSSYTVNWVRQPAGKGLEWIGYISYGGSAYYASWANGRFTISKDSSKNQFSLKLSSVTAADTAVYFCARHMQVGGAPTGSMAAFDPWGPGTLVTVSS VL: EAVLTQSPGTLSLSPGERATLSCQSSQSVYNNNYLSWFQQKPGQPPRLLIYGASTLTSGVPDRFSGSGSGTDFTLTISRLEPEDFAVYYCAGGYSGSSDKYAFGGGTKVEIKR
Response given: 10.80

Challenge: Here is the next binder: 4A11 (antibody, V domains shown, anti-TGFβ2/3, recombinant rabbit monoclonal; some paragraphs print the H/L pair as 32/33; also called Rb1.4A11; Rbt 4A11) VH: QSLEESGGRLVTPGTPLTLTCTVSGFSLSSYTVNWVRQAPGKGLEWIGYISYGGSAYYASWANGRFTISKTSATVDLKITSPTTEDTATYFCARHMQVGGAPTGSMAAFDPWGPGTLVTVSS VL: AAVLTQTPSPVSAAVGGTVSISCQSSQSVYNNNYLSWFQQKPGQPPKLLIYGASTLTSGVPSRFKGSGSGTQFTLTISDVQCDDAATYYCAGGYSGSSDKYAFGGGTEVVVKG
Response given: 11.80

Challenge: Here is the next binder: h4A11.v7.9 (antibody, human IgG1, kappa, N297G, V domains shown) VH: EQQLQESGPGLVKPSETLSLTCTVTGFSLSSYTVNWIRQPAGKGLEWIGYISYGGSAYYASWANGRFTISKDSSKNQVSLKLSSVTAADTAVYFCARHMQVGGAPTGSMAAFDPWGPGTLVTVSS VL: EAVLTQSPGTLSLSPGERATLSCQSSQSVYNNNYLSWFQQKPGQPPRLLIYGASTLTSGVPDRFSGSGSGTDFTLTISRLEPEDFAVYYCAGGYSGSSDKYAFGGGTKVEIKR
Response given: 11.31
